assay: 1-Octanol/water partition coefficient, log P of the compound by LC-MS analysis; format: physicochemical
REPORTED PROPERTY: logP
Number only, no unit.

The recorded logP for `C=C1CC/C=C(\C)CC[C@@H]2C([C@H](C/C=C(\C)COC(C)=O)OC(C)=O)=CO[C@H](OC(C)=O)[C@@H]12` is 3.8

* * *

target: Transient receptor potential cation channel subfamily M member 7 (Mus musculus, UniProt Q923J1); experiment: Inhibition of mouse TRPM7 transfected in HEK293 cells assessed as inhibition of channel current in presence of 300 uM free intracellular Mg2+ by whole cell patch clamp analysis; assay type: cell-based
Sequence (Q923J1 whole entry): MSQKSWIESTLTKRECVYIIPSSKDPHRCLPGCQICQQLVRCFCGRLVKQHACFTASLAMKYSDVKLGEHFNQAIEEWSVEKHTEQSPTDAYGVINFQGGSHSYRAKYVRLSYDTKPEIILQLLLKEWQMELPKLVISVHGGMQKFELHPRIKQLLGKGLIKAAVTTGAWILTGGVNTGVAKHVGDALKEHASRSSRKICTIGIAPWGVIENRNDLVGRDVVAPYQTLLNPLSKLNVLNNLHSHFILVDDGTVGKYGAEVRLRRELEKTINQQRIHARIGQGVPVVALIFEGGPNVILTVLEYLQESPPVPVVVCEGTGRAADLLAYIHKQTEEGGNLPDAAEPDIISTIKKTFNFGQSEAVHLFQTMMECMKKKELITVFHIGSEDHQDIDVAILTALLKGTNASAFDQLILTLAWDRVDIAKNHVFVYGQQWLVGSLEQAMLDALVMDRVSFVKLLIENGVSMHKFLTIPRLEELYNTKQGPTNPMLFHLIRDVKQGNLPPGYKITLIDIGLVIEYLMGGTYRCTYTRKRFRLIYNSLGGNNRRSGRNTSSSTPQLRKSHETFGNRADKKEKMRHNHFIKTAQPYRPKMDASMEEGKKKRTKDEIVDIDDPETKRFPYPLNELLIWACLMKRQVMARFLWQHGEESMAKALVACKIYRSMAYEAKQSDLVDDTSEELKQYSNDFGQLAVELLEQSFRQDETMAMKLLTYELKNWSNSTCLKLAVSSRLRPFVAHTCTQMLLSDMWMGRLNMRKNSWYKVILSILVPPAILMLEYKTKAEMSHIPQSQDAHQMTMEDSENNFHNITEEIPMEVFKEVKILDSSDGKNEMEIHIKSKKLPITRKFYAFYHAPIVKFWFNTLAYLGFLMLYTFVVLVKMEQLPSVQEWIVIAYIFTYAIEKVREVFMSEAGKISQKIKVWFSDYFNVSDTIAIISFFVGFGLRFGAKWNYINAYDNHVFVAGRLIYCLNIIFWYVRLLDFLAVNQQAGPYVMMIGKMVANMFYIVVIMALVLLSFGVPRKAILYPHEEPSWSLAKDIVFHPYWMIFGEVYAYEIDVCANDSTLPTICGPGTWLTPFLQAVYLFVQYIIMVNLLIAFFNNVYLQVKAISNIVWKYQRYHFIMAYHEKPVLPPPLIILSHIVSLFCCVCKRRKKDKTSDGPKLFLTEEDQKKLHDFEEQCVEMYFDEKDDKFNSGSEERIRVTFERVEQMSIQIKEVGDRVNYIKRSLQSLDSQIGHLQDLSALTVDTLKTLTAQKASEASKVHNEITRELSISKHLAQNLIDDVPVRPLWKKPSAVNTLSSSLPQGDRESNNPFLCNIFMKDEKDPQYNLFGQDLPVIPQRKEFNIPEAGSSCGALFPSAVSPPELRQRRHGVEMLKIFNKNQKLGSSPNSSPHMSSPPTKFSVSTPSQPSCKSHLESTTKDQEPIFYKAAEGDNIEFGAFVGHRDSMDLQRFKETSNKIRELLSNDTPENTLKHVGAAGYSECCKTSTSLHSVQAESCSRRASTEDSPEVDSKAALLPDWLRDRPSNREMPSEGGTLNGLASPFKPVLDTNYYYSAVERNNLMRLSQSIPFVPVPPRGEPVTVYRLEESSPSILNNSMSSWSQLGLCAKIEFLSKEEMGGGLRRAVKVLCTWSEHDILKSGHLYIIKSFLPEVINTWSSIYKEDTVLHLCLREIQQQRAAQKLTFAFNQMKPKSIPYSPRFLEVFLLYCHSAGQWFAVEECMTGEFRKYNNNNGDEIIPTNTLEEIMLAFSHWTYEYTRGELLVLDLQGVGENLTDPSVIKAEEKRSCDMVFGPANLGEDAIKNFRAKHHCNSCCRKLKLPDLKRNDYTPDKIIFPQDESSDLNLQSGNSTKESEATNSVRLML
REPORTED PROPERTY: IC50 (µM)
Give the quantity in µM, number only.

Just so you know, measured IC50 for `c1ccc2c(c1)CCC[C@H]2Nc1nc2ccccc2[nH]1` came out at 5.9

* * *

target: Transient receptor potential cation channel subfamily M member 7 (Homo sapiens, UniProt Q96QT4); test: Inhibition of human TRPM7 transfected in Tet-inducible HEK293-T-REx cells assessed as inhibition of channel current in presence of 780 uM intracellular Mg2+ by whole cell patch clamp analysis; format: cell-based
Sequence (Q96QT4 whole entry): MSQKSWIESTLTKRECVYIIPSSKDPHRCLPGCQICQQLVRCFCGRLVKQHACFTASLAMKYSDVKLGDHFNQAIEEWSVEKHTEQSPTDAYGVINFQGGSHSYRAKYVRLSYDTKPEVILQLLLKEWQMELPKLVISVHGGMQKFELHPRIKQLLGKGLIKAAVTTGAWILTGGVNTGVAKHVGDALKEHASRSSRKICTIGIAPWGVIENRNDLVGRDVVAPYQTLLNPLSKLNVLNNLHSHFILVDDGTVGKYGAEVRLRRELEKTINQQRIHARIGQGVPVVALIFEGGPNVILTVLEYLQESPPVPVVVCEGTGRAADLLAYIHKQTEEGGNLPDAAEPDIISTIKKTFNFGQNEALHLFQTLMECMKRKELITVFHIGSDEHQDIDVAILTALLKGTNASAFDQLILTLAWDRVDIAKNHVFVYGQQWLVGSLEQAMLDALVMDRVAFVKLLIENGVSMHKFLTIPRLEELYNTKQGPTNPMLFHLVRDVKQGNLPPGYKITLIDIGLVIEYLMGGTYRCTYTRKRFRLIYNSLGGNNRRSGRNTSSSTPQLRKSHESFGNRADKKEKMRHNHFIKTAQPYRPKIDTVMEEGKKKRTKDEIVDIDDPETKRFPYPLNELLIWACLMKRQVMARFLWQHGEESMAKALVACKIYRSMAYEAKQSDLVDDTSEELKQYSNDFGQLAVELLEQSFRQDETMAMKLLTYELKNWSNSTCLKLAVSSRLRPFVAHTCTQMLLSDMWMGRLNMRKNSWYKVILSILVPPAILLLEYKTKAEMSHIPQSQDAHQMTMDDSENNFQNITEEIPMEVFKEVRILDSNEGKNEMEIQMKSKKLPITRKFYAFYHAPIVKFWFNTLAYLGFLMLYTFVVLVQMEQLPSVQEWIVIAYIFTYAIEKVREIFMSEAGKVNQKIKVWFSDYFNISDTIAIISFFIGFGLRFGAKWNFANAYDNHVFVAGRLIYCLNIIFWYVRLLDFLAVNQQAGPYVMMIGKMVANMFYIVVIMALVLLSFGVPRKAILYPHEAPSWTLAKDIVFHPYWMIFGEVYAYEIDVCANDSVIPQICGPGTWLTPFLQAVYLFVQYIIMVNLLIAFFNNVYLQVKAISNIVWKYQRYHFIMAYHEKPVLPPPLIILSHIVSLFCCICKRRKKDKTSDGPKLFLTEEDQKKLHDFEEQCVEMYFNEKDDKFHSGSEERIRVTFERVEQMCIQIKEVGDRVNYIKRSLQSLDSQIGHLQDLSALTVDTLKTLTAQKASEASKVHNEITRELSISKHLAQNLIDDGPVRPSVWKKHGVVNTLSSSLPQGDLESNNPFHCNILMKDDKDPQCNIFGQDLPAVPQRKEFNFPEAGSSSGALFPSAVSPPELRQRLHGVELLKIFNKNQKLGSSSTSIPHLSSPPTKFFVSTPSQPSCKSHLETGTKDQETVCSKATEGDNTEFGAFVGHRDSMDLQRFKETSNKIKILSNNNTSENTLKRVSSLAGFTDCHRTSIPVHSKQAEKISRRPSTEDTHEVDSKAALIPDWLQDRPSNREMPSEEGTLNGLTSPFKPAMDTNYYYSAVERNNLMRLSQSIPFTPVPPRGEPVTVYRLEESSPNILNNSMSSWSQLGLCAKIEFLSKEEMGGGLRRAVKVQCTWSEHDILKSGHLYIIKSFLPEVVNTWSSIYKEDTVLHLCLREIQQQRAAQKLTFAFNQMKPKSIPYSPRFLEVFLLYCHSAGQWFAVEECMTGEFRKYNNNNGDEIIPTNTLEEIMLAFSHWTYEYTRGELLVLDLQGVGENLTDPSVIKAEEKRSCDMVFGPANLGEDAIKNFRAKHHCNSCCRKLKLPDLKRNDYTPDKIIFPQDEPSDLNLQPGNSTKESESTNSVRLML
REPORTED PROPERTY: pIC50
Reminder that pIC50 is minus the log10 of a molar concentration.

The compound listed as `C=C1[C@@H]2[C@@H](OC(C)=O)OC=C([C@H](C/C=C(\C)COC(C)=O)OC(C)=O)[C@H]2CC/C(C)=C/C[C@H]1O` has a reported pIC50 of 7.05

* * *

molecular target: Transient receptor potential cation channel subfamily M member 7 (Mus musculus, UniProt Q923J1); assay: Inhibition of HA-tagged mouse TRPM7 transfected in HEK293 cells assessed as inhibition of channel current by whole cell patch clamp analysis; assay type: cell-based
REPORTED PROPERTY: pIC50
Please note pIC50 is a logarithmic value: minus log10 of concentration in mol/L. Answer with that number alone.

`CCCCCCCCc1ccc(CCC(N)(CO)CO)cc1` has a reported pIC50 of 6.14

* * *

target: Transient receptor potential cation channel subfamily M member 7 (Mus musculus, UniProt Q923J1); format: cell-based, HEK293
Description: Inhibition of FLAG-tagged mouse TRPM7 transfected in HEK293 cells assessed as inhibition of channel-mediated Mn2+ influx incubated for ~15 mins and measured for 90 secs by Fura-2-dye based fluorescence analysis
REPORTED PROPERTY: IC50

C=C1CC/C=C(\C)CC[C@H]2[C@H]1[C@H]1O[C@H](O)[C@]2(/C=C/C=C(\C)COC(C)=O)O1 | > 150 µM
C=C1CC/C=C(\C)CC[C@@H]2C([C@@H](O)C/C=C(\C)COC(C)=O)=CO[C@H](OC(C)=O)[C@@H]12 | > 130 µM

// moving on: another record for IC50
The measured IC50 associated with `NCCOB(c1ccccc1)c1ccccc1` reads 22 µM

* * *

biological target: Transient receptor potential cation channel subfamily M member 7 (Mus musculus, UniProt Q923J1); test: Inhibition of mouse TRPM7 expressed in HEK293 cells assessed as inhibition of channel current in presence of 700 uM intracellular Mg2+ by whole cell patch clamp analysis; format: cell-based
REPORTED PROPERTY: pIC50
Please express pIC50 as -log10 of the molar concentration.

pIC50 reading for `C=C1CC/C=C(\C)CC[C@@H]2C([C@H](C/C=C(\C)COC(C)=O)OC(C)=O)=CO[C@H](OC(C)=O)[C@@H]12` : 7.80

* * *

molecular target: Transient receptor potential cation channel subfamily M member 7 (Mus musculus); assay: Inhibition of mouse TRPM7 transfected in HEK293T cells assessed as inhibition of channel current in absence of intracellular Mg2+ by whole cell patch clamp analysis; format: cell-based
REPORTED PROPERTY: pIC50
# reply with the number alone; pIC50 is -log10 of concentration in mol/L

The measured pIC50 associated with `N#Cc1ccc(COC[C@H]2O[C@@H](n3c(NCc4ccc(Cl)c(Cl)c4)nc4c(N)ncnc43)[C@H](O)[C@@H]2O)cc1` reads 6.96

Data origin: ChEMBL document CHEMBL5385949
